Assay: INK128 plasma pharmacokinetic study
Assay type: in vivo, ICR mice
Details: female, ICR, mouse; 3 mg/kg oral gavage, single dose, plasma
MEASURED_PARAMETER: AUC(0-t) (µM·h)

CC(C)n1nc(-c2ccc3oc(N)nc3c2)c2c(N)ncnc21 [INK128] : 7.38

---

Assay: INK128 plasma pharmacokinetic study
Assay type: in vivo, ICR mice
Conditions: female, ICR, mouse, plasma; 3 mg/kg oral gavage; 24 h; read-out: plasma concentration 24 h post dose
MEASURED_PARAMETER: concentration at 24 h (nM)

CC(C)n1nc(-c2ccc3oc(N)nc3c2)c2c(N)ncnc21 : 24.6

Origin of measurements: paper PMC5995255
